B1: HDV Ribozyme (parent)
chain: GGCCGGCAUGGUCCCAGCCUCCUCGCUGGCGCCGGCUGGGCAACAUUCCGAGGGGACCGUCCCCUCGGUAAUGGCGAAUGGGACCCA

- Variants of: B1
- assay: self-cleavage, relative activity (ratio to wild type); higher = more cleavage; co-transcriptional
experimental.endpoint: self-cleavage
Simply state the number, no unit and no words.

1. C41U U69C    0.955
2. A43C C63A    0.26

Recorded result, U12G U20A , self-cleavage: 0.0573

For this variant ( G10C G53U ), measured self-cleavage is 0.91

G10U C57G has a reported self-cleavage of 0.587

Form: variant = C18G G80C ; self-cleavage = 0.0707

Reported self-cleavage ( G10U C19A ) = 0.0946

Measured self-cleavage of U23A A71C : 0.712

G10U C75U yielded self-cleavage of 0.0678

The recorded self-cleavage for entry C14G C84G equals 0.128

self-cleavage reported for this variant G53U A71C : 0.538

self-cleavage measured on C36G A71C = 0.0475

G2U C15A yielded self-cleavage of 0.0231

self-cleavage reported for this variant C41G U65C : 0.745

So for C58U U60A , the logged self-cleavage turned out to be 0.845

Record A8U C86U , field self-cleavage: 0.997

Recorded self-cleavage (variant U23C A45U ): 0.675

self-cleavage in this record for G11A C32U : 0.133

Query U65C A77U yields self-cleavage of 0.806

Reported self-cleavage ( U9A G39U ) = 0.917

Note to self: self-cleavage recorded for G35C U47C was 0.237

Consider G52A G76U . Its measured self-cleavage is 0.983
